# test-method-notes: Solubility (18 hr vortex mixing at room temperature, filtration, HPLC)
# Format: physicochemical
# test-conditions: 20 °C, oil or lipid, thermodynamic from solid; canola oil; room temperature
metric: solubility at 18 h (µg/mL)
// return numeric value only (unit: µg/mL, not printed)

INPUT: Give the value of solubility at 18 h reported for the following: O=C(Cc1cccc(OC(F)(F)F)c1)Nc1ccc(CCCCc2nnc(NC(=O)Cc3ccccc3)s2)nn1 [Compound 585]
OUTPUT: 72

INPUT: Give the value of solubility at 18 h reported for the following: CCCC(=O)OCN(C(=O)Cc1ccccc1)c1nnc(CCCCc2ccc(NC(=O)Cc3ccccc3)nn2)s1 [Compound 402]
OUTPUT: 529

INPUT: Give the value of solubility at 18 h reported for the following: O=C(Cc1cccc(OC(F)(F)F)c1)Nc1ccc(CCCCc2nnc(NC(=O)[C@@H](O)c3ccccc3)s2)nn1 [Compound 703]
OUTPUT: 14

INPUT: Give the value of solubility at 18 h reported for the following: O=C(Cc1cccc(OC(F)(F)F)c1)Nc1ccc(CCCCc2nnc(NC(=O)C(O)c3cccc(Cl)c3)s2)nn1 (centres unmarked) [Compound 447]
OUTPUT: 71
